Field: Binding of CRJA to linear peptide (PEPSCAN-ELISA signal). Provide a value for each of the sequences that follow.
system: human monoclonal antibody CRJA; type: binding
One number for each entry.

   monomer_sequence  experimental_value
0   RTWNEILPSKGCLRV                  97
1   PSVADLDPYDRSLHS                  72
2   TCTGVVTEAENYTNF                  96

For every record below, what is its Binding of CRJA to linear peptide (PEPSCAN-ELISA signal)?
1. GKAYTIFNKTLMEAD
2. PSGKCSGVAVSSTYC
3. ESLVIISPSVADLDP
4. YMELKVGYILAIKMN
5. SPIDIHHLSCPNNLV
6. DYTIWMPENPRLGMS
7. PWSPIDIHHLSCPNN
8. KSVRTWNEILPSKGC

Result:
1: 100; 2: 106; 3: 120; 4: 96; 5: 100; 6: 106; 7: 76; 8: 90

====

system: human monoclonal antibody CR57; format: binding
parameter-measured: Binding of CR57 (10 μg/ml) to looped/cyclic peptide (PEPSCAN-ELISA signal)
One number for each entry.

In [3]: df
Out[3]:
   monomer_sequence  experimental_value
0   AAYNWKMAGDPRYEE                 104
1   HHLSCPNNLVVEDEG                  66
2   RSLHSRVFPSGKCSG                 102
3   RVFPSGKCSGVAVSS                  75
4   TKESLVIISPSVADL                  99

For every record below, what is its Binding of CR57 (10 μg/ml) to looped/cyclic peptide (PEPSCAN-ELISA signal)?
1. GMSCDIFTNSRGKRA
2. DIHHLSCPNNLVVED
3. KLGPWSPIDIHHLSC
4. ELKVGYILAIKMNGF
5. WLRTVKTTKESLVII
6. IKMNGFTCTGVVTEA
7. YTILDKLGPWSPIDI

Result:
[79, 52, 97, 84, 55, 93, 75]

For every record below, what is its Binding of CR57 (10 μg/ml) to looped/cyclic peptide (PEPSCAN-ELISA signal)?
1. YDRSLHSRVFPSGKC
2. FPIYTILDKLGPWSP

Result:
112
65

For every record below, what is its Binding of CR57 (10 μg/ml) to looped/cyclic peptide (PEPSCAN-ELISA signal)?
1. FVGYVTTTFKRKHFR
2. SLHSRVFPSGKCSGV
3. GDPRYEESLHNPYPD
4. EGCTNLSGFSYMELK

Result:
[117, 115, 64, 39]

====

system: human monoclonal antibody CRJB; format: binding
Field: Binding of CRJB to looped/cyclic peptide (PEPSCAN-ELISA signal). Provide a value for each of the sequences that follow.
One number for each entry.

   monomer_sequence                     test_system  experimental_value
0   FVEVHLPDVHNQVSG  human monoclonal antibody CRJB                 101
1   VEVHLPDVHNQVSGV  human monoclonal antibody CRJB                 104
2   KDGDEAEDFVEVHLP  human monoclonal antibody CRJB                  71
3   AEDFVEVHLPDVHNQ  human monoclonal antibody CRJB                  90

For every record below, what is its Binding of CRJB to looped/cyclic peptide (PEPSCAN-ELISA signal)?
1. STVFKDGDEAEDFVE
2. LPDVHNQVSGVDLGL
3. DFVEVHLPDVHNQVS
4. HPLADPSTVFKDGDE
5. FKDGDEAEDFVEVHL
6. NQVSGVDLGLPNWGK
7. PLADPSTVFKDGDEA

Result:
[93, 118, 92, 93, 80, 128, 97]

====

test system: human monoclonal antibody CRJA; type: binding
parameter-measured: Binding of CRJA (10 μg/ml) to looped/cyclic peptide (PEPSCAN-ELISA)

Use these answered entries as a reference point.
In [3]: df
Out[3]:
   monomer_sequence                     test_system  experimental_value
0   CHPHVNGVFFNGIIL  human monoclonal antibody CRJA                 105
1   TKSVSFRRLSHLRKL  human monoclonal antibody CRJA                  91
2   SNETKWCPPDQLVNL  human monoclonal antibody CRJA                 102
3   ADAHYKSVRTWNEIL  human monoclonal antibody CRJA                  90
4   FGKAYTIFNKTLMEA  human monoclonal antibody CRJA                  96
5   FNKTLMEADAHYKSV  human monoclonal antibody CRJA                 101
6   LVPGFGKAYTIFNKT  human monoclonal antibody CRJA                  58
7   SIMTTKSVSFRRLSH  human monoclonal antibody CRJA                  72
8   FRRLSHLRKLVPGFG  human monoclonal antibody CRJA                 111
9   TTKSVSFRRLSHLRK  human monoclonal antibody CRJA                  97

For every record below, what is its Binding of CRJA (10 μg/ml) to looped/cyclic peptide (PEPSCAN-ELISA)?
1. GRCHPHVNGVFFNGI
2. LMEADAHYKSVRTWN
3. AYTIFNKTLMEADAH
4. VVEELVRKREECLDA
5. GKAYTIFNKTLMEAD
6. DQLVNLHDFRSDEIE
7. YKSVRTWNEILPSKG
8. GTWVAMQTSNETKWC

Result:
1. 104
2. 43
3. 97
4. 59
5. 107
6. 63
7. 132
8. 62

====

Field: Binding of human monoclonal antibody CR57 to linear peptide (PEPSCAN-ELISA signal). Provide a value for each of the sequences that follow.
system: human monoclonal antibody CR57; format: binding
Answers are plain numbers.

Use these answered entries as a reference point.
In [3]: df
Out[3]:
   monomer_sequence  experimental_value
0   VHNQVSGVDLGLPNW                 100
1   ADPSTVFKDGDEAED                 147
2   EVHLPDVHNQVSGVD                  91

For every record below, what is its Binding of human monoclonal antibody CR57 to linear peptide (PEPSCAN-ELISA signal)?
1. TVFKDGDEAEDFVEV
2. VHLPDVHNQVSGVDL
3. LPDVHNQVSGVDLGL
4. FKDGDEAEDFVEVHL
5. EAEDFVEVHLPDVHN
6. DFVEVHLPDVHNQVS
7. DVHNQVSGVDLGLPN
8. FVEVHLPDVHNQVSG

Result:
[107, 110, 104, 65, 76, 96, 117, 92]

Task: Give recorded Binding of human monoclonal antibody CR57 to linear peptide (PEPSCAN-ELISA signal) with human monoclonal antibody CR57 for the following sequence: `DEAEDFVEVHLPDVH`
Result: 68

====

system: human monoclonal antibody CRJA; assay type: binding
Field: Binding of human monoclonal antibody CRJA to linear peptide (PEPSCAN-ELISA signal). Provide a value for each of the sequences that follow.
Give bare numbers.

Use these answered entries as a reference point.
   monomer_sequence  experimental_value
0   AEDFVEVHLPDVHNQ                 114
1   PLADPSTVFKDGDEA                  84

For every record below, what is its Binding of human monoclonal antibody CRJA to linear peptide (PEPSCAN-ELISA signal)?
1. TVFKDGDEAEDFVEV
2. STVFKDGDEAEDFVE
3. PDVHNQVSGVDLGLP
4. PSTVFKDGDEAEDFV
5. LADPSTVFKDGDEAE
6. FVEVHLPDVHNQVSG
7. NQVSGVDLGLPNWGK
8. HPLADPSTVFKDGDE

Result:
1. 92
2. 93
3. 107
4. 105
5. 86
6. 93
7. 103
8. 100

For every record below, what is its Binding of human monoclonal antibody CRJA to linear peptide (PEPSCAN-ELISA signal)?
1. EDFVEVHLPDVHNQV
2. KDGDEAEDFVEVHLP

Result:
1: 114; 2: 62

====

tested on: human monoclonal antibody CRJA; format: binding
Field: Binding of CRJA to linear peptide (PEPSCAN-ELISA signal). Provide a value for each of the sequences that follow.
Numbers only.

In [3]: df
Out[3]:
   monomer_sequence  experimental_value
0   MDGTWVAMQTSNETK                  85
1   NFVGYVTTTFKRKHF                  88
2   VFPSGKCSGVAVSST                  68
3   DALESIMTTKSVSFR                 105

For every record below, what is its Binding of CRJA to linear peptide (PEPSCAN-ELISA signal)?
1. PDQLVNLHDFRSDEI
2. GPWSPIDIHHLSCPN
3. LESIMTTKSVSFRRL
4. YTIFNKTLMEADAHY

Result:
[43, 72, 94, 90]

For every record below, what is its Binding of CRJA to linear peptide (PEPSCAN-ELISA signal)?
1. VVTEAENYTNFVGYV
2. NNLVVEDEGCTNLSG
3. TKSVSFRRLSHLRKL
4. VGYILAIKMNGFTCT
5. SGFSYMELKVGYILA
6. SSTYCSTNHDYTIWM
7. YEESLHNPYPDYRWL
8. ENPRLGMSCDIFTNS

Result:
[90, 93, 103, 70, 105, 71, 87, 101]

For every record below, what is its Binding of CRJA to linear peptide (PEPSCAN-ELISA signal)?
1. ECLDALESIMTTKSV
2. HYKSVRTWNEILPSK

Result:
[103, 87]

These data points were gathered from patent US20060263802A1.
